Reference source for all entries: ChEMBL document CHEMBL2331115

- Tested System: Vitamin D3 receptor (Homo sapiens)
- Experiment Notes: Agonist activity at CMX-GAL4 tagged human VDR expressed in HEK293 cells assessed as increase in transcriptional activity by luciferase reporter gene assay
- Type: cell-based
Value Type: PC50

Known PC50 results, listed for orientation:
Compound	PC50
CC[Si](CC)(c1ccc(OC[C@H](O)CO)c(C)c1)c1ccc(OC[C@@H](O)C(C)(C)C)c(C)c1	> 10 µM
CC[Si](CC)(c1ccc(OCC(=O)C(C)(C)C)c(C)c1)c1ccc(OCC2CO2)c(C)c1 (racemic)	4.8 µM
CC[Si](CC)(c1ccc(OCC(O)CO)c(C)c1)c1ccc(OCC(O)C(C)(C)C)c(C)c1 (mixture of isomers)	0.92 µM
CC[Si](CC)(c1ccc(OCC(=O)C(C)(C)C)c(C)c1)c1ccc(OC[C@@H](O)CO)c(C)c1	2 µM
CC[Si](CC)(c1ccc(OC[C@@H](O)CO)c(C)c1)c1ccc(OC[C@H](O)C(C)(C)C)c(C)c1 (mixture of isomers)	0.81 µM
CC[Si](CC)(c1ccc(NC[C@@H](O)CO)c(C)c1)c1ccc(OCC(=O)C(C)(C)C)c(C)c1	7 µM

I have 5 compounds here; please give me PC50 for each one.
1. CC[Si](CC)(c1ccc(NC[C@H](O)CO)c(C)c1)c1ccc(OCC(=O)C(C)(C)C)c(C)c1
2. CCC(CC)(c1ccc(OCC(=O)C(C)(C)C)c(C)c1)c1ccc(OCC(=O)C(C)(C)C)c(C)c1
3. CC[Si](CC)(c1ccc(O)c(C)c1)c1ccc(OC[C@H](O)C(C)(C)C)c(C)c1
4. CC[Si](CC)(c1ccc(OC[C@H](O)CO)c(C)c1)c1ccc(OC[C@H](O)C(C)(C)C)c(C)c1
5. CC[Si](CC)(c1ccc(OCC(=O)C(C)(C)C)c(C)c1)c1ccc(OC[C@H](O)CO)c(C)c1

A:
2.5 µM
4.6 µM
8.2 µM
2.1 µM
3.7 µM
